# Assay procedure: Inhibition of MYC in chicken embryonic fibroblasts assessed as reduction in transformed cell foci with repeated addition of compounds every second day and measured after 1 to 3 weeks by crystal violet staining based analysis
Parameter: IC50 (nM)
Numbers only, in nM.

Challenge: Would you kindly share the measured IC50 for Cc1cc(N2CCCCC2)nc2ccc(Cc3ccc4nc(N5CCCCC5)cc(C)c4c3)cc12 ?
Response given: 3000

Recorded values, source BindingDB's records for PubMed 38340508.
